Measured growth by item
- Test system: 786-0 renal
- experimental.protocol: NCI-60 one-dose screen, 48 h (100 = growth as untreated, 0 = no growth, -100 = all killed)
- condition.details: 10 µM unless noted
The panel holds about 83,000 compounds, 20% with a hit somewhere; the sample as a whole holds those more often.
reported.endpoint: growth (%)

molecule	numeric.readout
CN(C)CCNC(=O)n1cc(-c2ccncc2)c(-c2cc(O)cc(Cl)c2)n1	81.4
CC(=O)O[C@H]1CC[C@]2(C)[C@H]3CC=C4[C@@H]5CC(C)(C)CC[C@]5(C(=O)OCC(COC(=O)C(Cl)Cl)(COC(=O)C(Cl)Cl)NC(=O)C(Cl)Cl)CC[C@@]4(C)[C@]3(C)CC[C@H]2C1(C)C	63.9
CCOC(=O)C1OC2(CCCC2)OC1C(=O)OCC (centres undefined)	100
CSc1nc(N)c2[nH]c(-c3cc4ccccc4[nH]c3=O)nc2n1	72.1

This collection of values is drawn from PubChem BioAssay (NCI).
